In this section we review reported Hydrolysis product G4P values for a set of compounds.
# ASSAYED_TARGET: HPA (Homo sapiens, UniProt P04746)
# Sequence (P04746 16-511): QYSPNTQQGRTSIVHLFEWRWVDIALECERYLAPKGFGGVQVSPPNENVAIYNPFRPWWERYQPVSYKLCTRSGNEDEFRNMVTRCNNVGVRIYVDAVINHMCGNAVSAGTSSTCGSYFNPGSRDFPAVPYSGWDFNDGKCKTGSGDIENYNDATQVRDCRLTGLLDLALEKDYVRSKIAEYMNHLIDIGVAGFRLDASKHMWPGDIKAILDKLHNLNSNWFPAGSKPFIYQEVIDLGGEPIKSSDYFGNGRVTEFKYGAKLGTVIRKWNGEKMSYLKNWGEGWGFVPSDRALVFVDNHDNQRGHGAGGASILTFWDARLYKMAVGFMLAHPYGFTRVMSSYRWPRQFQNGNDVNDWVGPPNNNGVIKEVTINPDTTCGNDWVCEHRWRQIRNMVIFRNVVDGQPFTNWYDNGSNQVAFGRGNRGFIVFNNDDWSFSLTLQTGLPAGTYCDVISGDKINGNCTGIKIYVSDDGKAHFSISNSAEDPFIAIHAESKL
# PROCEDURE_TEXT: Binding mode (distribution of hydrolysis products) by HPLC
# Format: biochemical
# STUDY_CONDITIONS: share of product G4P
// note: answer is a bare numeric in %

>>> result("O=[N+]([O-])c1ccc(O[C@H]2O[C@H](CO)[C@@H](O[C@H]3O[C@H](CO)[C@@H](O[C@H]4O[C@H](CO)[C@@H](O[C@H]5O[C@H](CO)[C@@H](O[C@H]6O[C@H](CO)[C@@H](O)[C@H](O)[C@H]6O)[C@H](O)[C@H]5O)[C@H](O)[C@H]4O)[C@H](O)[C@H]3O)[C@H](O)[C@H]2O)cc1 [Substrate G5P]")
0

Now consider a different compound.
Problem: Determine from records and report Hydrolysis product G4P for `O=[N+]([O-])c1ccc(O[C@H]2O[C@H](CO)[C@@H](O[C@H]3O[C@H](CO)[C@@H](O[C@H]4O[C@H](CO)[C@@H](O[C@H]5O[C@H](COCc6ccccc6)[C@@H](O)[C@H](O)[C@H]5O)[C@H](O)[C@H]4O)[C@H](O)[C@H]3O)[C@H](O)[C@H]2O)cc1`
Solution: 0

----------
# ASSAYED_TARGET: HSA (Homo sapiens, UniProt P0DUB6)
# Sequence (P0DUB6 16-511): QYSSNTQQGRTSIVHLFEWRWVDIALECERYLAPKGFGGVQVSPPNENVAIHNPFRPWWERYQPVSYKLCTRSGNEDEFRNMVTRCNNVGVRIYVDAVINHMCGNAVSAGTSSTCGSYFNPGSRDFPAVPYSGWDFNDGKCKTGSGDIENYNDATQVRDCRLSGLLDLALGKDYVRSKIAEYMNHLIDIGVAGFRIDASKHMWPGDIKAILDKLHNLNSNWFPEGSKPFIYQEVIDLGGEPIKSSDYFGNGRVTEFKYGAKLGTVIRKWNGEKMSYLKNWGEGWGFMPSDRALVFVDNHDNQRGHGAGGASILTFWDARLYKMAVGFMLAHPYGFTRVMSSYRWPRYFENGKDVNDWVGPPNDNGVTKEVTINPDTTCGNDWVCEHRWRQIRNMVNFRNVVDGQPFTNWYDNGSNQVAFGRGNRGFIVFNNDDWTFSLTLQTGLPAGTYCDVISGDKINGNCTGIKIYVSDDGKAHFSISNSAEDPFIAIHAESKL
# PROCEDURE_TEXT: Binding mode (distribution of hydrolysis products) by HPLC
# Type: biochemical
# STUDY_CONDITIONS: share of product G2P
ATTRIBUTE_MEASURED: Hydrolysis product G2P (%)
// note: answer is a bare numeric in %

Problem: Determine from records and report Hydrolysis product G2P for O=[N+]([O-])c1ccc(O[C@H]2O[C@H](CO)[C@@H](O[C@H]3O[C@H](CO)[C@@H](O[C@H]4O[C@H](CO)[C@@H](O[C@H]5O[C@H](CO)[C@@H](O[C@H]6O[C@H](CO)[C@@H](O[C@H]7O[C@H](CO)[C@@H](O[C@H]8O[C@@H]9COC(c%10ccccc%10)O[C@H]9[C@H](O)[C@H]8O)[C@H](O)[C@H]7O)[C@H](O)[C@H]6O)[C@H](O)[C@H]5O)[C@H](O)[C@H]4O)[C@H](O)[C@H]3O)[C@H](O)[C@H]2O)cc1 (some centres unmarked)
Solution: 55

Problem: Determine from records and report Hydrolysis product G2P for O=[N+]([O-])c1ccc(O[C@H]2O[C@H](CO)[C@@H](O[C@H]3O[C@H](CO)[C@@H](O[C@H]4O[C@H](CO)[C@@H](O[C@H]5O[C@H](CO)[C@@H](O)[C@H](O)[C@H]5O)[C@H](O)[C@H]4O)[C@H](O)[C@H]3O)[C@H](O)[C@H]2O)cc1 [Substrate G4P]
Solution: 74
